- system_name: ΔN(1–60)-PRMT8 (Homo sapiens)
- Sequence (Q9NR22 61-394, stated change not applied): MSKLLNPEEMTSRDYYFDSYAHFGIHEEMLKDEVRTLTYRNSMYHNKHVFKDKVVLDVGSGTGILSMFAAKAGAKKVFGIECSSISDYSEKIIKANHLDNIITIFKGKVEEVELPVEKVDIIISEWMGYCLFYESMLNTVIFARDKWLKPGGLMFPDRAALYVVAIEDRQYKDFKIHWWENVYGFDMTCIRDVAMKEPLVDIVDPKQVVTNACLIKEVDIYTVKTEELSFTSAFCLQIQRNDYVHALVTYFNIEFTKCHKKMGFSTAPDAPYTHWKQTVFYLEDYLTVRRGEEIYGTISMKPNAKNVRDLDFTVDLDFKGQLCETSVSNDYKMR
- measurement_description: Radioisotope-based filter-binding (HotSpot) assay, PRMT8
- measurement_parameters: read-out: IC50 PRMT8 (Figure 5 heatmap)
Please respond with reported IC50 for every item in the list.
Please state the figure in µM; there is no need to write the unit.

Data request: Item: COC(=O)c1cc(O)c2cc(NC(=O)NCCCCCNC(=N)NC[C@H]3O[C@@H](n4cnc5c(N)ncnc54)[C@H](O)[C@@H]3O)ccc2c1 [12c] Test system: ΔN(1–60)-PRMT8 (Homo sapiens) Read-out: IC50 Value: ?
Data returned: 5.87

Data request: Try the compound COC(=O)c1cc(O)c2cc(NC(=O)NCCCNC(=N)NC[C@H]3O[C@@H](n4cnc5c(N)ncnc54)[C@H](O)[C@@H]3O)ccc2c1 [12a]
Data returned: 8.29

Data request: Lookup COC(=O)c1cc(O)c2cc(NC(=O)NCCCCNC(=N)NC/C=C/[C@H]3O[C@@H](n4cnc5c(N)ncnc54)[C@H](O)[C@@H]3O)ccc2c1 [12h]
Data returned: 1.95
